Biological target: CCR1 (Homo sapiens)
Assay: Method B: calcium flux in CCR1 transfected cells (Calcium 4 dye, […] FDSS6000), block of the CCR1/MIP-1α interaction
Assay type: cell-based
Conditions: Method B: Calcium 4 dye, MIP-1alpha at EC80
pIC50: −log10 of the molar value.
reported endpoint: pIC50

Solved cases (3 shown):
CCC(NC(=O)c1cncc2c1cnn2-c1ccc(F)cc1)c1ccc(S(C)(=O)=O)[n+]([O-])c1 (stereo not shown)
8.05
CC[C@H](NC(=O)c1cncc2c1cnn2-c1ccc(F)cc1)c1ccnc(N2CCC(F)(F)CC2)c1
8.52
COC(=O)CCS(=O)(=O)c1cc([C@H](C)NC(=O)c2cncc3c2cnn3-c2ccc(F)cc2)ccn1
7.43

(P) CN(CC(N)=O)c1cc(CNC(=O)c2cncc3c2cnn3-c2ccc(F)cc2)cc(S(C)(=O)=O)n1
(Q) CC(C)(O)CNS(=O)(=O)c1ccc(CNC(=O)c2cncc3c2cnn3-c2ccc(F)cc2)cc1
(R) CC[C@@H](NC(=O)c1cncc2c1cnn2-c1ccc(F)cc1)c1cc(S(C)(=O)=O)cn1S(=O)(=O)c1ccc(C)cc1
(S) CC[C@H](NC(=O)c1cncc2c1cnn2-c1ccc(F)cc1)c1ccnc([S@+](C)[O-])c1
(T) CC[C@H](NC(=O)c1cncc2c1cnn2-c1ccc(F)cc1)c1ccc(S(C)(=O)=O)s1
Query :: Ranking field: pIC50; order: falling. Form entry: labels listed in requested order.
Result :: T, S, Q, P, R
(T: 9.70, S: 9.30, Q: 9.00, P: 8.52, R: 7.80)

(P) CC(C)(O)CNc1cc(CNC(=O)c2cncc3c2cnn3-c2ccc(F)cc2)cc(S(C)(=O)=O)n1
(Q) CC[C@H](NC(=O)c1nccc2c1cnn2-c1ccc(F)cc1)c1ccnc(S(C)(=O)=O)c1
(R) CC[C@@H](NC(=O)c1cncc2c1cnn2-c1ccc(F)cc1)c1ccn(S(=O)(=O)c2ccc(C)cc2)c1
(S) CC[C@H](NC(=O)c1cncc2c1cnn2-c1ccc(F)cc1)c1ccnc(N2CCN(C(C)=O)CC2)c1
Query :: Order by pIC50, ascending. Form entry: labels listed in requested order.
Result :: R, S, Q, P

(P) CC[C@H](NC(=O)c1cncc2c1cnn2-c1ccc(F)cc1)c1ccnc(NC)c1
(Q) CC[C@H](NC(=O)c1cncc2c1cnn2-c1ccc(F)cc1)c1ccnc(S(N)(=O)=O)c1
(R) CC[C@H](NC(=O)c1cncc2c1cnn2-c1ccc(F)cc1)c1cnc(SC)o1
(S) CCC(NC(=O)c1cncc2c1cnn2-c1ccc(F)cc1)C1CCCN(C(=O)OC(C)(C)C)C1 (stereo not shown)
(T) CC[C@H](NC(=O)c1cncc2c1cnn2-c1ccc(F)cc1)c1cncc(S(=O)(=O)CCC(=O)O)c1
Query :: Ranking field: pIC50; order: falling. Form entry: labels listed in requested order.
Result :: Q, R, P, T, S
(Q: 9.40, R: 9.00, P: 8.40, T: 7.85, S: 7.59)

(a) C[C@H](NC(=O)c1cncc2c1cnn2-c1ccc(F)cc1)c1csc(S(C)(=O)=O)n1
(b) CC[C@H](NC(=O)c1cncc2c1cnn2-c1ccc(F)cc1)c1cc(N(C)CC(N)=O)nc(S(C)(=O)=O)c1
(c) CC[C@H](NC(=O)c1cncc2c1cnn2-c1ccc(F)cc1)c1ccnc(N(C)CCO)c1
(d) CC[C@H](NC(=O)c1cncc2c1cnn2-c1ccc(F)cc1)c1ccc(Br)s1
Query :: Order by pIC50, ascending. Form entry: labels listed in requested order.
Result :: a, c, d, b

---

Target: CCR1 (Homo sapiens, UniProt P32246)
Sequence (P32246 1-355): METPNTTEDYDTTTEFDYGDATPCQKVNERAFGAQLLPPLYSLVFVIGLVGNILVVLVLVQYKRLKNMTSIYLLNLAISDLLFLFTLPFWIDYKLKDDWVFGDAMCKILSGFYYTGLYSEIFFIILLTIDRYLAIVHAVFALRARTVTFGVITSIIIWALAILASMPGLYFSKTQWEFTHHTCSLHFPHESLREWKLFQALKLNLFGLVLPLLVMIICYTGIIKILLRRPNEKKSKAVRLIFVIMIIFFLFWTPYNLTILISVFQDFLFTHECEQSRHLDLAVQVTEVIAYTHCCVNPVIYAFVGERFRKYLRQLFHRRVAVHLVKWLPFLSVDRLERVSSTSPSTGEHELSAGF
Experiment: Method A: calcium flux in CCR1 transfected cells (Fluo-4 NW, FLIPR TETRA), block of the CCR1/MIP-1α interaction
Format: cell-based
Details: Method A: Fluo-4 NW, MIP-1 alpha at EC80
Method: Compounds are assessed for the ability to block the interaction of CCR1 and MIP-1α in a functional cellular assay measuring calcium flux in CCR1 transfected cells. Method A: Non-adherent cells purchased from Chemicon Corporation (HTS005C), stably expressing recombinant CCR1 and G-alpha-16 are grown in RPMI 1640 medium (Mediatech 10-080-CM) supplemented with 10% heat-inactivated FBS, 0.4 mg/mL Geneticin and penicillin/streptomycin. […] Data are analyzed using Activity Base software.
reported endpoint: IC50 (nM)

Solved cases (3 shown):
CS(=O)(=O)c1ccc(CNC(=O)c2cncc3c2cnn3-c2ccc(Cl)cc2)cn1
34
C[C@H](NC(=O)c1cncc2c1cnn2-c1ccc(F)cc1)c1ccc(S(C)(=O)=O)nc1
9
CN1CCN(S(=O)(=O)Cc2ccc(CNC(=O)c3cncc4c3cnn4-c3ccc(F)cc3)cc2)CC1
39

(A) C[C@H](CO)NS(=O)(=O)c1ccc(CNC(=O)c2cncc3c2cnn3-c2ccc(F)cc2)cc1
(B) CNS(=O)(=O)c1cc(CNC(=O)c2cncc3c2cnn3-c2ccc(F)cc2)ccc1OC
(C) CCC(NC(=O)c1cncc2c1cnn2-c1ccc(F)cc1)c1ccnc(Br)c1 (stereo not shown)
(D) CS(=O)(=O)c1cccc(CNC(=O)c2cncc3c2cnn3-c2ccc(Cl)cc2)c1
(E) CN1CCC(N(C)S(=O)(=O)Cc2ccc(CNC(=O)c3cncc4c3cnn4-c3ccc(F)cc3)cc2)CC1
Query :: Ranking field: IC50; order: falling. Form entry: labels listed in requested order.
Result :: E, B, D, A, C
(E: 33 nM, B: 12 nM, D: 7 nM, A: 2 nM, C: 0.4 nM)

---

Target: CCR1 (Homo sapiens)
Assay: Method B: calcium flux in CCR1 transfected cells (Calcium 4 dye, […] FDSS6000), block of the CCR1/MIP-1α interaction
Assay type: cell-based
Details: Method B: Calcium 4 dye, MIP-1alpha at EC80
reported endpoint: IC50 (nM)

Solved cases (3 shown):
COc1cc([C@H](C)NC(=O)c2cncc3c2cnn3-c2ccc(F)cc2)cc(S(C)(=O)=O)n1
0.4
C=CC[C@H](NC(=O)c1cncc2c1cnn2-c1ccc(F)cc1)c1ccnc(S(C)(=O)=O)c1
0.3
CC[C@H](NC(=O)c1cncc2c1cnn2-c1ccc(F)cc1)c1ccnc(C(=O)O)c1
12

(A) CC[C@@H](NC(=O)c1cncc2c1cnn2-c1ccc(F)cc1)c1cc(S(C)(=O)=O)cn1C
(B) CC[C@H](NC(=O)c1cncc2c1cnn2-c1ccc(F)cc1)c1ccnc(N(C)C2CCNCC2)c1
Query :: Pick one: A or B . Which one has the lower reported IC50? Bench note: the answer is the label of the chosen record.
Result :: A

(P) CSc1ncc([C@H](C)NC(=O)c2cncc3c2cnn3-c2ccc(F)cc2)o1
(Q) CC[C@H](NC(=O)c1cncc2c1cnn2-c1ccc(F)cc1)c1cn[nH]c1
Query :: Pick one: P or Q . Which one has the lower reported IC50? Bench note: the answer is the label of the chosen record.
Result :: P

(a) CS(=O)(=O)c1csc(CNC(=O)c2cncc3c2cnn3-c2ccc(F)cc2)c1
(b) CCC(NC(=O)c1cncc2c1cnn2-c1ccc(F)cc1)C1CCN(C(N)=O)CC1 (stereo not shown)
(c) CC[C@H](NC(=O)c1cncc2c1cnn2-c1ccc(F)cc1)c1ccc(S(C)(=O)=O)o1
Query :: Ranking field: IC50; order: falling. Form entry: labels listed in requested order.
Result :: b, a, c

(1) CC[C@H](NC(=O)c1cncc2c1cnn2-c1ccc(F)cc1)c1cc(S(C)(=O)=O)ccn1
(2) CCC(NC(=O)c1cncc2c1cnn2-c1ccc(F)cc1)c1nc(C(N)=O)co1 (stereo not shown)
Query :: Which one would you say has the larger IC50 value: 1 , or 2 ? Bench note: the answer is the label of the chosen record.
Result :: 2

---

Target: CCR1 (Homo sapiens, UniProt P32246)
Assay: Method B: calcium flux in CCR1 transfected cells (Calcium 4 dye, […] FDSS6000), block of the CCR1/MIP-1α interaction
Assay type: cell-based
Details: Method B: Calcium 4 dye, MIP-1alpha at EC80
pIC50: −log10 of the molar value.
reported endpoint: pIC50

CC[C@H](NC(=O)c1cncc2c1cnn2-c1ccc(F)cc1)c1cncc(S(C)(=O)=O)c1
9.70
CC[C@H](NC(=O)c1cncc2c1cnn2-c1ccc(F)cc1)c1ccnc(C(C)(C)O)c1
9.30
CC[C@H](NC(=O)c1cncc2c1cnn2-c1ccc(F)cc1)c1ccnc(C)c1
9.05
O=C(NCc1ccc(Br)s1)c1cncc2c1cnn2-c1ccc(F)cc1
7.72
CC[C@H](NC(=O)c1cncc2c1cnn2-c1ccc(F)cc1)c1cncc(S(N)(=O)=O)c1
9.52

(1) CC[C@H](NC(=O)c1cncc2c1cnn2-c1ccc(F)cc1)c1coc(S(C)(=O)=O)n1
(2) CC[C@H](NC(=O)c1cncc2c1cnn2-c1ccc(F)cc1)c1ccc(S(C)(=O)=O)nc1
Query :: Pick one: 1 or 2 . Which one has the lower reported pIC50? Bench note: the answer is the label of the chosen record.
Result :: 1

(a) CC[C@H](NC(=O)c1cncc2c1cnn2-c1ccc(F)cc1)c1cc(S(C)(=O)=O)co1
(b) CC[C@H](NC(=O)c1cncc2c1cnn2-c1ccc(F)cc1)c1cnc(S(C)(=O)=O)s1
Query :: Which one would you say has the larger pIC50 value: a , or b ? Bench note: the answer is the label of the chosen record.
Result :: b
(b: 9.22, a: 8.22)

(a) O=C(NCc1cnc(N2CCOCC2)s1)c1cncc2c1cnn2-c1ccc(F)cc1
(b) C[C@@H](O)CNS(=O)(=O)c1ccc(CNC(=O)c2cncc3c2cnn3-c2ccc(F)cc2)cc1
Query :: Which one would you say has the larger pIC50 value: a , or b ? Bench note: the answer is the label of the chosen record.
Result :: b

(I) CCC(NC(=O)c1cncc2c1cnn2-c1ccc(F)cc1)c1nc(C(=O)NC)co1 (stereo not shown)
(II) COC[C@H](NC(=O)c1cncc2c1cnn2-c1ccc(F)cc1)c1ccnc(Br)c1
(III) CC[C@H](NC(=O)c1cncc2c1cnn2-c1ccc(F)cc1)c1ccn(S(C)(=O)=O)n1
Query :: Order by pIC50, ascending. Form entry: labels listed in requested order.
Result :: I, III, II
(I: 7.80, III: 8.52, II: 9.30)
